target: hGYS1 enzyme (recombinant hGYS1/GN1 protein) (Homo sapiens (Human), UniProt P13807); assay: GYS1 coupled enzyme assay (PK/LDH); details: hGYS1/GN1 50 nM, UDP-Glucose 0.8 mM, G6P 1 mM; geometric mean of at least 2 runs
Sequence (P13807 whole entry): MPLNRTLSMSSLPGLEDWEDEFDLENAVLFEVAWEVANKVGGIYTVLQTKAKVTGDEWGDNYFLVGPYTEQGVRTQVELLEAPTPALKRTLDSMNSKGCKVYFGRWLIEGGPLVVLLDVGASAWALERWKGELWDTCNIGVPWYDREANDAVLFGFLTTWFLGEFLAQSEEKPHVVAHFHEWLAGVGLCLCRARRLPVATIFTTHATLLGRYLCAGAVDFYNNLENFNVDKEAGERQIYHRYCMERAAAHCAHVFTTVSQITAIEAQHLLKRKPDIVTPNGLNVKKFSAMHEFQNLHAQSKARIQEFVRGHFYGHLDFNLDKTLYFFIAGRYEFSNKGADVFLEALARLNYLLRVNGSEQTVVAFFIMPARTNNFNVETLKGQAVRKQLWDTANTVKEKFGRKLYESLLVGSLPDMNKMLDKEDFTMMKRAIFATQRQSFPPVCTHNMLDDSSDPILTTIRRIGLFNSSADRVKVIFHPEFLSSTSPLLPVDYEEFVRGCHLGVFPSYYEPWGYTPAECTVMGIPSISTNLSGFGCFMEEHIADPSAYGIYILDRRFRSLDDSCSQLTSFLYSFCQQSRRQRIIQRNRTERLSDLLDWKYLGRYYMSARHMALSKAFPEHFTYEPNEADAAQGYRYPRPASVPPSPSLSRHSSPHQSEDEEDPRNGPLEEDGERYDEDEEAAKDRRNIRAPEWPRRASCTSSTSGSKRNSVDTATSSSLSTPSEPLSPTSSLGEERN
Sequence (P46976 whole entry partner): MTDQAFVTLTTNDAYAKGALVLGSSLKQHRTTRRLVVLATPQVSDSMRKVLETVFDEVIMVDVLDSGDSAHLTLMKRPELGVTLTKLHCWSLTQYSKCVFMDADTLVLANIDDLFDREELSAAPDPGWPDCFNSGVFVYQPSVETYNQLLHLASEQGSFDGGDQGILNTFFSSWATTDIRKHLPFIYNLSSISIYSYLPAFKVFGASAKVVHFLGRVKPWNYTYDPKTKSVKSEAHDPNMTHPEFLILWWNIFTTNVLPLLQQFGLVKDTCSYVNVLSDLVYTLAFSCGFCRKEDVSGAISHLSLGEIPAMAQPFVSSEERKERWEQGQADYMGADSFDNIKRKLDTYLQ
pIC50: −log10 of the molar value.
QUANTITY: pIC50

>  <MOLECULE>
CC(C)c1ccc([C@@H](NC(=O)[C@@H]2C[C@@H](F)CN2C(=O)Cn2nnc(C(F)(F)F)n2)c2ccccc2)nc1 [Compound 255]

>  <pIC50>
7.06

$$$$
>  <MOLECULE>
CC(C)c1ccc([C@@H](NC(=O)[C@@H]2C[C@@H](F)CN2C(=O)Cc2nn[nH]n2)c2ccccc2)cc1 (stereo in doubt) [Compound 223]

>  <pIC50>
7.21

$$$$
>  <MOLECULE>
O=C(N[C@@H](c1ccccc1)c1ccc(C2CC2)c(F)n1)[C@@H]1C[C@@H](F)CN1C(=O)CNC(=O)N(Cc1ccccc1)C(F)(F)F [Compound 744]

>  <pIC50>
7.34

$$$$
>  <MOLECULE>
Cc1nnc(CC(=O)N2C[C@H](F)C[C@H]2C(=O)N[C@@H](c2ccccc2)c2ccc(C3CC3)c(F)c2)[nH]1 [Compound 434]

>  <pIC50>
6.96

$$$$

(A) O=C(N[C@@H](c1ccccc1)c1ccc(C2CC2)c(F)c1)[C@@H]1C[C@@H](F)CN1C(=O)Cn1cnc2ccccc21 [Compound 417]
(B) CCn1cc(C)cc(CC(=O)N2C[C@H](F)C[C@H]2C(=O)N[C@@H](c2ccccc2)c2ccc(C3CC(F)(F)C3)c(F)n2)c1=O [Compound 525]
IN: pIC50 comparison. Which is larger, A or B ? Pick one and reply with its label.
OUT: B
(B: 8.40, A: 7.64)

* * *

target: hGYS1 enzyme (recombinant hGYS1/GN1 protein) (Homo sapiens (Human), UniProt P13807); assay: GYS1 coupled enzyme assay (PK/LDH); conditions: hGYS1/GN1 50 nM, UDP-Glucose 0.8 mM, G6P 1 mM; geometric mean of at least 2 runs
QUANTITY: IC50 (nM)

>  <MOLECULE>
Cc1nccc(NCC(=O)N2C[C@H](F)C[C@H]2C(=O)N[C@@H](c2ccccc2)c2ccc(C(C)C)cn2)n1

>  <EXPERIMENTAL_TARGET>
hGYS1 enzyme (recombinant hGYS1/GN1 protein) (Homo sapiens (Human), UniProt P13807)

>  <UNIT_SYMBOL>
nM

>  <IC50>
14

$$$$
>  <MOLECULE>
CC(C)c1ccc([C@@H](NC(=O)[C@@H]2C[C@@H](F)CN2C(=O)Cn2cnnn2)c2ccccc2)cc1F

>  <EXPERIMENTAL_TARGET>
hGYS1 enzyme (recombinant hGYS1/GN1 protein) (Homo sapiens (Human), UniProt P13807)

>  <UNIT_SYMBOL>
nM

>  <IC50>
21

$$$$

(A) CC(C)c1ccc([C@@H](NC(=O)[C@@H]2C[C@@H](F)CN2C(=O)C(C)(C)O)c2ccccc2)cc1F
(B) CC(C)c1ccc([C@@H](NC(=O)[C@@H]2C[C@@H](F)CN2C(=O)C(C)n2cnnn2)c2ccccc2)cc1F (single isomer, unassigned) [Compound 766]
(C) CC(C)c1ccc([C@@H](NC(=O)[C@@H]2C[C@@H](F)CN2C(=O)Cn2nnnc2C(F)F)c2ccccc2)nc1
(D) Cc1nn[nH]c1CC(=O)N1C[C@H](F)C[C@H]1C(=O)N[C@@H](c1ccccc1)c1ccc(C(C)C)c(F)c1
IN: Order the items by recorded IC50; the first position goes to the largest value. Put the labels in the requested order and list them out.
OUT: A, C, B, D

(a) O=C(NC(c1ccc(F)cc1)c1ccc(C2CC2)c(F)n1)[C@@H]1C[C@@H](F)CN1C(=O)Cn1nnnc1C(F)F (single isomer, unassigned)
(b) CC(C)c1ccc([C@@H](NC(=O)[C@@H]2C[C@@H](F)CN2C(=O)Cc2cnnn2C)c2ccccc2)cc1F
IN: Of a and b , which carries the smaller reported IC50 figure? Please indicate the selected item by its label.
OUT: b
(b: 37 nM, a: 99 nM)

(1) CC(C)c1ccc([C@@H](NC(=O)[C@@H]2C[C@@H](F)CN2C(=O)C(C)c2ccccn2)c2ccccc2)cc1 (some centres unmarked)
(2) CC(=O)N1C[C@H](F)C[C@H]1C(=O)NC(c1cccc(-n2cccn2)c1)c1ccc(C(C)C)c(F)n1 (single isomer, unassigned)
(3) Cc1ncccc1C(NC(=O)[C@@H]1C[C@@H](F)CN1C(=O)Cc1cnn[nH]1)c1ccc(C2(C)CC2)c(F)c1 (single isomer, unassigned)
(4) CC(C)c1ccc([C@@H](NC(=O)[C@@H]2C[C@@H](F)CN2C(=O)Cc2nnc[nH]2)c2ccccc2)cc1
IN: List items by IC50 in falling order. Give the order by naming the labels one after another as requested.
OUT: 3, 1, 2, 4

(A) O=C(N[C@@H](c1ccccc1)c1ccc(C2CC2)c(F)n1)[C@@H]1C[C@@H](F)CN1C(=O)Cn1ccc(=O)[nH]c1=O
(B) CC(C)c1ccc([C@@H](NC(=O)[C@@H]2C[C@@H](F)CN2C(=O)CCn2nc3ccccn3c2=O)c2ccccc2)nc1F
IN: Among A and B , which shows a numerically higher IC50 result? Which one? Tell me its label.
OUT: A
(A: 17 nM, B: 9 nM)

(P) CC(C)COc1cc(C(=O)N2C[C@H](F)C[C@H]2C(=O)N[C@@H](c2ccccc2)c2ccc(C(C)C)cc2)ccn1
(Q) CC(C)c1ccc([C@@H](NC(=O)[C@@H]2C[C@@H](F)CN2C(=O)Cc2ccno2)c2ccccc2)cc1F
(R) CC1(c2ccc([C@@H](NC(=O)[C@@H]3C[C@@H](F)CN3C(=O)Cn3nnc4ccccc43)c3ccccc3)cc2F)CC1
(S) Cc1coc(CC(=O)N2C[C@H](F)C[C@H]2C(=O)N[C@@H](c2ccccc2)c2ccc(C3CC3)c(F)n2)n1
(T) Cc1nccn1CCCC(=O)N1C[C@H](F)C[C@H]1C(=O)N[C@@H](c1ccccc1)c1ccc(C(C)C)cc1
IN: List these items ordered by IC50, big to small. // format: requested-order list of labels
OUT: P, T, R, S, Q
(P: 1720 nM, T: 249 nM, R: 119 nM, S: 63 nM, Q: 34 nM)

(P) CC(C)c1ccc([C@@H](NC(=O)[C@@H]2C[C@@H](F)CN2C(=O)Cn2cnnc2)c2ccccc2)cc1F
(Q) O=C(N[C@@H](c1ccccc1)c1ccc(C2CC2)c(F)n1)[C@@H]1C[C@@H](F)CN1C(=O)Cn1nccc1C(F)(F)F
IN: Could you tell me which of P and Q has the lower IC50 reading? Kindly give the label for the entry you pick.
OUT: Q

(I) O=C(N[C@@H](c1ccccc1)c1ccc(C2CC2)c(F)n1)[C@@H]1C[C@@H](F)CN1C(=O)Cc1ccc(=O)[nH]c1
(II) COCc1oncc1C(=O)N1C[C@H](F)C[C@H]1C(=O)N[C@@H](c1ccccc1)c1ccc(C(C)C)cc1
IN: Hi there! Just curious which has the higher IC50 between I and II . Give the chosen item's label as your response.
OUT: II
(II: 504 nM, I: 26 nM)

(a) Cn1cc(C(F)F)c(CC(=O)N2C[C@H](F)C[C@H]2C(=O)N[C@@H](c2ccccc2)c2ccc(C3CC3)c(F)n2)n1
(b) Cc1coc(CC(=O)N2C[C@H](F)C[C@H]2C(=O)N[C@@H](c2ccccc2)c2ccc(C3CC(F)(F)C3)cn2)n1
IN: Please indicate which item has the smaller measured IC50: a versus b State the label of the item chosen.
OUT: a

* * *

Entries and their measured IC50 follow.
target: hGYS2 enzyme (recombinant hGYS2/GN1 protein) (Homo sapiens (Human)); assay: GYS2 coupled enzyme assay (PK/LDH); conditions: geometric mean of at least 2 assay runs on separate days, read-out: Avg_IC50
Sequence (P54840 whole entry, one chain of several): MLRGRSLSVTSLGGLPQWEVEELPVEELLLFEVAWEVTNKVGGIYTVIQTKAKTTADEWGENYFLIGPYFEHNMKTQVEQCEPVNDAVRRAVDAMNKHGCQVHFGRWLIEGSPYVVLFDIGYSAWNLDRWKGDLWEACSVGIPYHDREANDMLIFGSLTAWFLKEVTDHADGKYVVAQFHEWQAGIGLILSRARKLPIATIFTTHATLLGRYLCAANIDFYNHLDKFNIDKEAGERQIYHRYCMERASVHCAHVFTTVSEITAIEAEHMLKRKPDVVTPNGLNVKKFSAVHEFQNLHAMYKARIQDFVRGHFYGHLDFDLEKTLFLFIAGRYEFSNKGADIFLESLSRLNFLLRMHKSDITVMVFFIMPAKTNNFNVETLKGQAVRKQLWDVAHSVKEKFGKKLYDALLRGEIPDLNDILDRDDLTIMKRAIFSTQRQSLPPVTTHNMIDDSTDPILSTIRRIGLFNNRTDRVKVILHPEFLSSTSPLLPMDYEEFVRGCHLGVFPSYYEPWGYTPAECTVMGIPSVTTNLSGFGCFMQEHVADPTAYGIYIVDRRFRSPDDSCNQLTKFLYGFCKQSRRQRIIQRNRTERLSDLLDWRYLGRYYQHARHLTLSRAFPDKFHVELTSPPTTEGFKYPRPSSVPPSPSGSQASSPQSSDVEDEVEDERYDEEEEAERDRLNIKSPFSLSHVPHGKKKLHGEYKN

Reference set, count: 3
>  <MOLECULE>
Cn1c(=O)ccn(CC(=O)N2C[C@H](F)C[C@H]2C(=O)N[C@@H](c2ccccc2)c2ccc(C3CC3)c(F)c2)c1=O [Compound 449]

>  <IC50>
> 100 µM

$$$$
>  <MOLECULE>
CC1(c2ccc([C@@H](NC(=O)[C@@H]3C[C@@H](F)CN3C(=O)Cc3n[nH]c4ccccc34)c3ccccc3)cc2F)CC1 [Compound 571]

>  <IC50>
> 100 µM

$$$$
>  <MOLECULE>
O=C(N[C@@H](c1ccccc1)c1ccc(C2CC2)c(F)c1)[C@@H]1C[C@@H](F)CN1C(=O)CN1C(=O)Cc2ccccc21 [Compound 454]

>  <IC50>
> 100 µM

$$$$

IN: Specify IC50 for CC(C)c1ccc([C@@H](NC(=O)[C@@H]2C[C@@H](F)CN2C(=O)CCn2nc3ccccn3c2=O)c2ccccc2)nc1 [Compound 289] and stop.
OUT: > 100 µM

IN: Please give the documented IC50 of CC(C)c1ccc([C@@H](NC(=O)[C@@H]2C[C@@H](F)CN2C(=O)Cc2cncnc2)c2ccccc2)cc1F [Compound 345]
OUT: > 100 µM

IN: Dear colleague, please send me the reported IC50 for CC(C)c1ccc([C@@H](NC(=O)[C@@H]2C[C@@H](F)CN2C(=O)Cn2ncc(N3CC(F)(F)C3)n2)c2ccccc2)nc1 [Compound 277] when you can.
OUT: > 100 µM
